Cited source: patent US20180057604A1

measurement-target: T1, cyno TfR extracellular domain (analogous construct to human TfR ecd) (cynomolgus monkey, UniProt Q5RDH6 87-760 (Pongo abelii entry))
T1 construct: also called cynoTfR ecd
T1 chain: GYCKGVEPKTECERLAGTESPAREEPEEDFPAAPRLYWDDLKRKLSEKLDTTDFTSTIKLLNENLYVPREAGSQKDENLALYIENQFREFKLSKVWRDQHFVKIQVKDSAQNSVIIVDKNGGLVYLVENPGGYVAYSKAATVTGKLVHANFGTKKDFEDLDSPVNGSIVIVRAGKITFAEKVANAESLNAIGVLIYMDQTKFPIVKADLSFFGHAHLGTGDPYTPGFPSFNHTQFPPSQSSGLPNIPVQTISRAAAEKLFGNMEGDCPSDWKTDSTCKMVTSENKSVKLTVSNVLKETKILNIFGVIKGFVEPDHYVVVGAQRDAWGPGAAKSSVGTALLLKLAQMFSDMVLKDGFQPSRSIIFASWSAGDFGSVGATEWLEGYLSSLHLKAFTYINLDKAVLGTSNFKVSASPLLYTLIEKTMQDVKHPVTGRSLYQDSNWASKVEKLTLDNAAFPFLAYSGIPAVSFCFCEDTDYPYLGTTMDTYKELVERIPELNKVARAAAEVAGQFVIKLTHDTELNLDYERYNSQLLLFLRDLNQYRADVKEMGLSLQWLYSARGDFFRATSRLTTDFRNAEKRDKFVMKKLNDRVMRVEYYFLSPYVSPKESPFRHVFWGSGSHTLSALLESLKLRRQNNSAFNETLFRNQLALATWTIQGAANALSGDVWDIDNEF
assay-procedure: SPR, TfR captured by anti-His, Fab injected
Measured kon of individual entries

{"binder": "Hu15G11.HC53A Fab (Fab, V domains shown, Fab; also called 15G11.53A Fab) VH: EVQLVQSGAEVKKPGASVKVSCKASGYTFTSYWMHWVRQAPGQRLEWIGEINPANGRTNYIEKFKSRATLTVDKSASTAYMELSSLRSEDTAVYYCARGTRAYHYWGQGTMVTVSS VL: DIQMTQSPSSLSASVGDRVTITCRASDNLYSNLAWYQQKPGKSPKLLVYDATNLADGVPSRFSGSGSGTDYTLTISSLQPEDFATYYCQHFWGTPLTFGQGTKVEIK", "kon [M⁻¹ s⁻¹]": 484000}
{"binder": "Hu15G11.HC34A Fab (Fab, V domains shown, Fab) VH: EVQLVQSGAEVKKPGASVKVSCKASGYTFTSYWAHWVRQAPGQRLEWIGEINPTNGRTNYIEKFKSRATLTVDKSASTAYMELSSLRSEDTAVYYCARGTRAYHYWGQGTMVTVSS VL: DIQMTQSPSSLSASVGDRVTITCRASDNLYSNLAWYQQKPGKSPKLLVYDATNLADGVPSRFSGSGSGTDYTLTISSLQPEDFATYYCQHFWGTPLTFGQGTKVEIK", "kon [M⁻¹ s⁻¹]": 304000}
{"binder": "Hu15G11.HC51A Fab (Fab, V domains shown, Fab) VH: EVQLVQSGAEVKKPGASVKVSCKASGYTFTSYWMHWVRQAPGQRLEWIGEANPTNGRTNYIEKFKSRATLTVDKSASTAYMELSSLRSEDTAVYYCARGTRAYHYWGQGTMVTVSS VL: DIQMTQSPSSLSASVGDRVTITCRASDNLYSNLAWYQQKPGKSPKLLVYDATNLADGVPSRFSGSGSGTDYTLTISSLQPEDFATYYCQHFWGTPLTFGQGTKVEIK", "kon [M⁻¹ s⁻¹]": 313000}
{"binder": "Hu15G11.v5.Fab (Fab, V domains shown, Fab) VH: EVQLVQSGAEVKKPGASVKVSCKASGYTFTSYWMHWVRQAPGQRLEWIGEINPTNGRTNYIEKFKSRATLTVDKSASTAYMELSSLRSEDTAVYYCARGTRAYHYWGQGTMVTVSS VL: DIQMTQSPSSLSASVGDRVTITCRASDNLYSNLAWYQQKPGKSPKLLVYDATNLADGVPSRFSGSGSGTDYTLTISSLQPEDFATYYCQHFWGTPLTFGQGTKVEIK", "kon [M⁻¹ s⁻¹]": 451000}
